# tested_target: UniProtKB P43235
# Sequence (whole entry): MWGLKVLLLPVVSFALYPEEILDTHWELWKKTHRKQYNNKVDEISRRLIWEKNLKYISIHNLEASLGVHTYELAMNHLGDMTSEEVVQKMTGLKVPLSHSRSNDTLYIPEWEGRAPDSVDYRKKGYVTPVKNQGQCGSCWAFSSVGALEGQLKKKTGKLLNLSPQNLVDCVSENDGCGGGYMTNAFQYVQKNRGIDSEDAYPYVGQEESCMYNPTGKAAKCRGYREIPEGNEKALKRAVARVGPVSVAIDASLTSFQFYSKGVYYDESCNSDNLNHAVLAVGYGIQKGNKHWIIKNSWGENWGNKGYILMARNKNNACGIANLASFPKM
# assay: Compound is evaluated for inhibition kinetic constant (kobs/[I], 1/M.1/s) for cathepsin O2
measured_attribute: k obs / 1 (M⁻¹ s⁻¹)
Answer format: numeric, M⁻¹ s⁻¹ implied, no suffix.

Reference set (2 entries):
[[record]]
structure_notation = "CC(C)C[C@H](NC(=O)NN1CCOCC1)C(=O)N[C@@H](CC(C)C)C(=O)N[C@@H](Cc1ccc(O)cc1)C(=O)/C=C/S(=O)(=O)c1ccccc1"
measured_attribute = "k obs / 1"
reported_value = 815

[[record]]
structure_notation = "O=C(NC(=O)[C@H](Cc1ccccc1)NC(=O)[C@H](CCc1ccccc1)N/C=C/S(=O)(=O)CCc1ccccc1)NN1CCOCC1"
measured_attribute = "k obs / 1"
reported_value = 28500


Ask: I am curious: what k obs / 1 value has been reported for CC(C)C[C@H](NC(=O)OCc1ccccc1)C(=O)N[C@@H](CC(C)C)C(=O)N[C@@H](Cc1ccc(O)cc1)C(=O)/C=C/S(=O)(=O)c1ccccc1 ?
Reply: 900

Ask: I am curious: what k obs / 1 value has been reported for CSCC[C@H](NC(=O)[C@H](CC(C)C)NC(=O)[C@H](CC(C)C)NC(C)=O)C(=O)/C=C/S(=O)(=O)c1ccccc1 ?
Reply: 25000

Ask: I am curious: what k obs / 1 value has been reported for CC(=O)N[C@@H](CC(C)C)C(=O)N[C@@H](CC(C)C)C(=O)N[C@@H](CCS(C)(=O)=O)C(=O)/C=C/S(=O)(=O)c1ccccc1 ?
Reply: 22700

Ask: I am curious: what k obs / 1 value has been reported for NCCCC[C@H](N/C=C/S(=O)(=O)c1ccccc1)C(=O)N[C@@H](Cc1ccccc1)C(=O)NC(=O)NN1CCOCC1 ?
Reply: 83300

Ask: I am curious: what k obs / 1 value has been reported for CS(=O)(=O)/C=C/N[C@@H](CCc1ccccc1)C(=O)N[C@@H](Cc1ccccc1)C(=O)NC(=O)NN1CCOCC1 ?
Reply: 6540

====

Procathepsin L (Homo sapiens, UniProt P07711) measurements of Ki, listed per entry.

Reference set (2 entries):
[[record]]
structure_notation = "O=C(NC(=O)[C@H](Cc1ccccc1)NC(=O)[C@H](CCc1ccccc1)N/C=C/S(=O)(=O)c1ccccc1)NN1CCOCC1"
measured_attribute = "Ki"
reported_value = "1 µM"

[[record]]
structure_notation = "CC(C)C[C@H](NC(=O)[C@H](CCc1ccccc1)N/C=C/S(=O)(=O)c1ccccc1)C(=O)NC(=O)NN1CCOCC1"
measured_attribute = "Ki"
reported_value = "0.72 µM"


Note: attention shifts to another entry.
Ask: Record O=C(NC(=O)[C@H](Cc1ccc2ccccc2c1)NC(=O)[C@H](CCc1ccccc1)N/C=C/S(=O)(=O)c1ccc2ccccc2c1)NN1CCOCC1 : what is its Ki with Procathepsin L (Homo sapiens, UniProt P07711)?
Reply: 0.018 µM

====

# tested_target: Calpain-1 catalytic subunit (Homo sapiens) (UniProt P07384)
# Sequence (P07384 whole entry): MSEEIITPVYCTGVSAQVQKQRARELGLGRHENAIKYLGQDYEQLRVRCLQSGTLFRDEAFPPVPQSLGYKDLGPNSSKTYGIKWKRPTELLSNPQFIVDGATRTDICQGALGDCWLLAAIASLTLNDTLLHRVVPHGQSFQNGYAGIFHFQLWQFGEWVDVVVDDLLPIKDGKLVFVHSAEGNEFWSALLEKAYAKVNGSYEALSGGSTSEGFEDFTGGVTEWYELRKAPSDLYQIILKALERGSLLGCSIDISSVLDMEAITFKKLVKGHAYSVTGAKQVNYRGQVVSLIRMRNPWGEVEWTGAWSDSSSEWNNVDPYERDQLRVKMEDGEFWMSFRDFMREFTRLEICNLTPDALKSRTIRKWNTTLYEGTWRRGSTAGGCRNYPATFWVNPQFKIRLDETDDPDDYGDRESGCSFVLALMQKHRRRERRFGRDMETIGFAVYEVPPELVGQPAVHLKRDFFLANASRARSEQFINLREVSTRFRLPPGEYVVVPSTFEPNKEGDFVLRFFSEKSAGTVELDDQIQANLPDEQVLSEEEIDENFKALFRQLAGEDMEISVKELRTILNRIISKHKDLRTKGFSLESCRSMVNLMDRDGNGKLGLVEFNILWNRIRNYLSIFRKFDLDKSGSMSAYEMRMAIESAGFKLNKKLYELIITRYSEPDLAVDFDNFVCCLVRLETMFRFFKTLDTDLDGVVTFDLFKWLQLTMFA
# assay: Compound is evaluated for inhibition kinetic constant (kobs/[I], 1/M.1/s) for calpain 1
measured_attribute: k obs / 1 (M⁻¹ s⁻¹)
Answer format: numeric, M⁻¹ s⁻¹ implied, no suffix.

[[record]]
structure_notation = "CC(C)C[C@H](NC(=O)NN1CCOCC1)C(=O)N[C@@H](CC(C)C)C(=O)N[C@@H](Cc1ccc(O)cc1)C(=O)/C=C/S(=O)(=O)c1ccccc1"
measured_attribute = "k obs / 1"
reported_value = 10800

[[record]]
structure_notation = "CCCC[C@H](NC(=O)[C@H](CC(C)C)NC(=O)[C@H](CC(C)C)NC(C)=O)C(=O)/C=C/S(=O)(=O)c1ccccc1"
measured_attribute = "k obs / 1"
reported_value = 6900

[[record]]
structure_notation = "CC(C)C[C@H](NC(=O)OCc1ccccc1)C(=O)N[C@@H](CC(C)C)C(=O)N[C@@H](Cc1ccc(O)cc1)C(=O)/C=C/S(=O)(=O)c1ccccc1"
measured_attribute = "k obs / 1"
reported_value = 6400

[[record]]
structure_notation = "CSCC[C@H](NC(=O)[C@H](CC(C)C)NC(=O)[C@H](CC(C)C)NC(C)=O)C(=O)/C=C/S(=O)(=O)c1ccccc1"
measured_attribute = "k obs / 1"
reported_value = 5600


Note: attention shifts to another entry.
Ask: I am curious: what k obs / 1 value has been reported for CC(=O)N[C@@H](CC(C)C)C(=O)N[C@@H](CC(C)C)C(=O)N[C@@H](CCS(C)(=O)=O)C(=O)/C=C/S(=O)(=O)c1ccccc1 ?
Reply: 8400

====

# tested_target: Cathepsin S (Homo sapiens)
# Sequence (P25774 115-331 limits assumed): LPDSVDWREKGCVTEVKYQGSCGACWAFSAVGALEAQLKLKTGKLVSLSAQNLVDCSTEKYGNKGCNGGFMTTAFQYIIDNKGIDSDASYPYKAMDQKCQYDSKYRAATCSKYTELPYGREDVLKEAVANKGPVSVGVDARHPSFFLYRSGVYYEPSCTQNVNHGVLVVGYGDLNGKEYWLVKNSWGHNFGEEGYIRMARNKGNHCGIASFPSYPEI
# assay: Compound is evaluated for inhibition kinetic constant (kobs/[I], 1/M.1/s) for cathepsin S
measured_attribute: log10 k obs / 1 (log10 of the value in M⁻¹ s⁻¹)
Hello, just confirming the data are log10 of k obs / 1 with units of M⁻¹ s⁻¹.

Reference set (2 entries):
[[record]]
structure_notation = "O=C(NC(=O)[C@H](Cc1ccc2ccccc2c1)NC(=O)[C@H](CCc1ccccc1)N/C=C/S(=O)(=O)CCc1ccccc1)NN1CCOCC1"
reported_value = 7.46

[[record]]
structure_notation = "O=C(NC(=O)[C@H](Cc1ccccc1)NC(=O)[C@H](CCc1ccccc1)N/C=C/S(=O)(=O)CCc1ccccc1)NN1CCOCC1"
reported_value = 6.67


Ask: I am curious: what log10 k obs / 1 value has been reported for CC(C)C[C@H](NC(=O)NN1CCOCC1)C(=O)N[C@@H](CC(C)C)C(=O)N[C@@H](Cc1ccc(O)cc1)C(=O)/C=C/S(=O)(=O)c1ccccc1 ?
Reply: 4.40

Ask: I am curious: what log10 k obs / 1 value has been reported for NCCCC[C@H](N/C=C/S(=O)(=O)c1ccccc1)C(=O)N[C@@H](Cc1ccccc1)C(=O)NC(=O)NN1CCOCC1 ?
Reply: 7.03

Ask: I am curious: what log10 k obs / 1 value has been reported for CS(=O)(=O)/C=C/N[C@@H](CCc1ccccc1)C(=O)N[C@@H](Cc1ccccc1)C(=O)NC(=O)NN1CCOCC1 ?
Reply: 6.08

Ask: I am curious: what log10 k obs / 1 value has been reported for CC(C)C[C@H](NC(=O)OCc1ccccc1)C(=O)N[C@@H](CC(C)C)C(=O)N[C@@H](Cc1ccc(O)cc1)C(=O)/C=C/S(=O)(=O)c1ccccc1 ?
Reply: 5.45

====

Below: a set of entries, each annotated with reported k obs / 1.
# tested_target: Procathepsin L (Homo sapiens, UniProt P07711)
# assay: Compound is evaluated for inhibition kinetic constant (kobs/[I], 1/M.1/s) for cathepsin L
# Sequence (P07711 114-333 limits assumed): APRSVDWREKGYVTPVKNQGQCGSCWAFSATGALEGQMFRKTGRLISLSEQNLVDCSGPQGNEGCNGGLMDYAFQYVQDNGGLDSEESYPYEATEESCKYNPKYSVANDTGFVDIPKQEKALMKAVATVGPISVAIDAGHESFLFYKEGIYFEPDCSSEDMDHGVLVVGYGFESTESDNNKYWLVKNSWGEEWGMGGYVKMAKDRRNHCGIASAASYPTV
Answer format: numeric, M⁻¹ s⁻¹ implied, no suffix.

Reference set (5 entries):
[[record]]
structure_notation = "O=C(NC(=O)[C@H](Cc1ccccc1)NC(=O)[C@H](CCc1ccccc1)N/C=C/S(=O)(=O)CCc1ccccc1)NN1CCOCC1"
readout_unit = "M⁻¹ s⁻¹"
reported_value = 340000

[[record]]
structure_notation = "CC(=O)N[C@@H](CC(C)C)C(=O)N[C@@H](CC(C)C)C(=O)N[C@@H](CCS(C)(=O)=O)C(=O)/C=C/S(=O)(=O)c1ccccc1"
readout_unit = "M⁻¹ s⁻¹"
reported_value = "1.5e+06"

[[record]]
structure_notation = "CSCC[C@H](NC(=O)[C@H](CC(C)C)NC(=O)[C@H](CC(C)C)NC(C)=O)C(=O)/C=C/S(=O)(=O)c1ccccc1"
readout_unit = "M⁻¹ s⁻¹"
reported_value = 880000

[[record]]
structure_notation = "CC(C)C[C@H](NC(=O)NN1CCOCC1)C(=O)N[C@@H](CC(C)C)C(=O)N[C@@H](Cc1ccc(O)cc1)C(=O)/C=C/S(=O)(=O)c1ccccc1"
readout_unit = "M⁻¹ s⁻¹"
reported_value = 28700

[[record]]
structure_notation = "NCCCC[C@H](N/C=C/S(=O)(=O)c1ccccc1)C(=O)N[C@@H](Cc1ccccc1)C(=O)NC(=O)NN1CCOCC1"
readout_unit = "M⁻¹ s⁻¹"
reported_value = 220000


Ask: I am curious: what k obs / 1 value has been reported for CS(=O)(=O)/C=C/N[C@@H](CCc1ccccc1)C(=O)N[C@@H](Cc1ccccc1)C(=O)NC(=O)NN1CCOCC1 ?
Reply: 8700

Ask: I am curious: what k obs / 1 value has been reported for O=C(NC(=O)[C@H](Cc1ccc2ccccc2c1)NC(=O)[C@H](CCc1ccccc1)N/C=C/S(=O)(=O)CCc1ccccc1)NN1CCOCC1 ?
Reply: 2.24e+06

Ask: I am curious: what k obs / 1 value has been reported for CCCC[C@H](NC(=O)[C@H](CC(C)C)NC(=O)[C@H](CC(C)C)NC(C)=O)C(=O)/C=C/S(=O)(=O)c1ccccc1 ?
Reply: 930000

Where these numbers come from: ChEMBL document CHEMBL1128689
